TARGET: T1, human FcRn/b2M (human, UniProt P61769 21-119, biotinylated)
T1 construct: bought recombinant biotinylated protein (ACRO FCM-H82W4 or Immunitrack ITF01); also called hFcRn; hFcRn/hb2M
TEST METHOD NOTES: SPR pH 6.0
READOUT: koff (s⁻¹)

(a) T026301087 (VHH, name in Kabat numbering, tagless) VHH: EVQLVESGGGVVQPGGSLRLSCAASGFTFSEYDMYWVRQAPGKGLEWVSAISQGGGSTDYADSVKGRFTISRDNSKNTLYLQMNSLRPEDTALYYCAADTLYTSLTWYSYWGQGTLVTVSS
(b) T026301067 (VHH, name in Kabat numbering, tagless) VHH: EVQLVESGGGVVQPGGSLRLSCAASTFTFSSYDMYWVRQAPGKGLEWVSAISQGGGSTDYADSVKGRFTISRDNSKNTLYLQMNSLRPEDTALYYCAADTLYTSLTKYSYWGQGTLVTVSS
[in] Please state the entry with greater koff among a and b . Please respond with the label that marks your chosen entry.
[out] b
